Reference for the values: paper PMC7265341

target: CDK13/Cyclin K (Homo sapiens, UniProt Q14004); experiment: NanoBRET live-cell target engagement, CDK13-NanoLuc/Cyclin K in HEK-293; type: binding; details: CDK13/K; 10µM; read-out: Inhibition at 10µM (%) Replicate 1
Sequence (O75909 whole entry): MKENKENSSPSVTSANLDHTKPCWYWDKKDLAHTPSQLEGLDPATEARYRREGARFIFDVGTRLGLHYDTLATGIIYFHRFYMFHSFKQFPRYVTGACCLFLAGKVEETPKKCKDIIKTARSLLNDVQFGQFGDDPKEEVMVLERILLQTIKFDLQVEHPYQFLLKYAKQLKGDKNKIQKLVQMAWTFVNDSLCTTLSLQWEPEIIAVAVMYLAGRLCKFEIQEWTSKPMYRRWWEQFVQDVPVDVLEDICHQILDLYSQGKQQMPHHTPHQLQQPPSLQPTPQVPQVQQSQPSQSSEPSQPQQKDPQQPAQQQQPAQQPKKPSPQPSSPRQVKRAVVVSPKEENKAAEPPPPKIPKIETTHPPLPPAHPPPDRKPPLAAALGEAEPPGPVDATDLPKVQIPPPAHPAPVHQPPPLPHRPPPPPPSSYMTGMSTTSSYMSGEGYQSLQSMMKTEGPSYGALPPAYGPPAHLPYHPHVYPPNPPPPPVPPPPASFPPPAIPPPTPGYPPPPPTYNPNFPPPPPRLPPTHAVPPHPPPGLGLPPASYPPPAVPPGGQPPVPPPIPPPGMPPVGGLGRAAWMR
Sequence (Q14004 other isoform, or with tags, fused parts or gaps): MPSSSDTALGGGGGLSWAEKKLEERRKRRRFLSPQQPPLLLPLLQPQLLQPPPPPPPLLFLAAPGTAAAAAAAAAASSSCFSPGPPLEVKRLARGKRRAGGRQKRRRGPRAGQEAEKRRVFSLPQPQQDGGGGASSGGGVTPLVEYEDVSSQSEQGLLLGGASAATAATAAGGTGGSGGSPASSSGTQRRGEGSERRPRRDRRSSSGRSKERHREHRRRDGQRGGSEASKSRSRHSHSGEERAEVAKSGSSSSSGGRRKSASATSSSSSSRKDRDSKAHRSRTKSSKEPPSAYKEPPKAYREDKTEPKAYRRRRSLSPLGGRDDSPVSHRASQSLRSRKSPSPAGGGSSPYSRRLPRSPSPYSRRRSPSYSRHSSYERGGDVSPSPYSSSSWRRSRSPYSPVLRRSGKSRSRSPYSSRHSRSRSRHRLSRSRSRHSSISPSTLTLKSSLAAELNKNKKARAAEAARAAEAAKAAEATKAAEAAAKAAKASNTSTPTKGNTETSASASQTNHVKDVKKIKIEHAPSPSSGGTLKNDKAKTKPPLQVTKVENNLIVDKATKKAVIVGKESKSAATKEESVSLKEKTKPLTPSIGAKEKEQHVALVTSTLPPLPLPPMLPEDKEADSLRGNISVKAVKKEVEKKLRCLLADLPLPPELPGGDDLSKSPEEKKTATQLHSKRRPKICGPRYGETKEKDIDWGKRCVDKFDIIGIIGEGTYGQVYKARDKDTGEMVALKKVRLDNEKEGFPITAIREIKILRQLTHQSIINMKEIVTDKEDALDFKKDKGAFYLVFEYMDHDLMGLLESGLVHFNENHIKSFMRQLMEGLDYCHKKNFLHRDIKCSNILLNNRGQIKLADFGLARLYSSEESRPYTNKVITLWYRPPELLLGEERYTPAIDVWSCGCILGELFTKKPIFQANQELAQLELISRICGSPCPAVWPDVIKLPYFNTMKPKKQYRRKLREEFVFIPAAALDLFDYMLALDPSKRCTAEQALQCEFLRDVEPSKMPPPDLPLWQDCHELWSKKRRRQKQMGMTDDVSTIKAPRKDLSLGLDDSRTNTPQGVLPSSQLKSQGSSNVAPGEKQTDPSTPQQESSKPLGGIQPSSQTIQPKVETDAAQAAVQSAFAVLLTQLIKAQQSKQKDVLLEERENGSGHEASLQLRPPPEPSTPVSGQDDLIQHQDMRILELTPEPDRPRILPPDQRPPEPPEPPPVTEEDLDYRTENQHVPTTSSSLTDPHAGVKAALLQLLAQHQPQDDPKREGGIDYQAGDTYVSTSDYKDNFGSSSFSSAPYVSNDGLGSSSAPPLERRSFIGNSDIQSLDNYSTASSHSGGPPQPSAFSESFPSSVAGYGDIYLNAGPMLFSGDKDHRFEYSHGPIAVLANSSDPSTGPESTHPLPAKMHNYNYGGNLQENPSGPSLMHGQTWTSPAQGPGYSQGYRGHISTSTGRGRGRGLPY
// inhibition at 10 µM lookup, one value per entry
Give the value in % but do not write % after it.

# Compound, System Name, inhibition at 10 µM, %
records = [
    ("COc1cc(F)ccc1-c1cc(Nc2cc(CS(C)(=N)=O)ccn2)ncc1F (centres unmarked)", "CDK13/Cyclin K (Homo sapiens, UniProt Q14004)", 23.5),
    ("C[C@H]1CC[C@H](n2c3cnccc3c3cnc(Nc4ccc5c(n4)CCN(C(=O)CO)C5)nc32)CC1", "CDK13/Cyclin K (Homo sapiens, UniProt Q14004)", 3.8),
    ("O=C(NC1CCNCC1)c1[nH]ncc1NC(=O)c1c(Cl)cccc1Cl", "CDK13/Cyclin K (Homo sapiens, UniProt Q14004)", 44.4),
    ("CCN1CCN(Cc2ccc(NC(=O)Nc3ccc(Oc4cc(NC)ncn4)cc3)cc2C(F)(F)F)CC1", "CDK13/Cyclin K (Homo sapiens, UniProt Q14004)", 28),
]

Please look at the following compound next.
-- ask Would you mind telling me what inhibition at 10 µM value was observed for `CCCCOc1c(C(=O)c2c(F)cc(C)cc2F)c[nH]c2nncc1-2` ?
-- reply 10.5

====

// inhibition at 10 µM lookup, one value per entry
biological target: CDK3/Cyclin E1 (Homo sapiens); test: NanoBRET live-cell target engagement, CDK3-NanoLuc/Cyclin E1 in HEK-293; type: binding; settings: 10µM; independent experiment 1; read-out: CDK3/E1 Inhibition at 10µM (%)
Sequence (Q00526 whole entry): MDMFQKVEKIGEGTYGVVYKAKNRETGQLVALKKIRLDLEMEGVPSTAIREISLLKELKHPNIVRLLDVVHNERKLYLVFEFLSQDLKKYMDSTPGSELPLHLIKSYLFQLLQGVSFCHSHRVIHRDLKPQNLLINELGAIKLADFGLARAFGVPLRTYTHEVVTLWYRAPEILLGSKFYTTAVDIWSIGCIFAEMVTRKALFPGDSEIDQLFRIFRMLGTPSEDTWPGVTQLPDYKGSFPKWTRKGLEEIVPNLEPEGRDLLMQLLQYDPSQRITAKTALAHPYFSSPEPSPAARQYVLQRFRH
Sequence (P24864 whole entry partner): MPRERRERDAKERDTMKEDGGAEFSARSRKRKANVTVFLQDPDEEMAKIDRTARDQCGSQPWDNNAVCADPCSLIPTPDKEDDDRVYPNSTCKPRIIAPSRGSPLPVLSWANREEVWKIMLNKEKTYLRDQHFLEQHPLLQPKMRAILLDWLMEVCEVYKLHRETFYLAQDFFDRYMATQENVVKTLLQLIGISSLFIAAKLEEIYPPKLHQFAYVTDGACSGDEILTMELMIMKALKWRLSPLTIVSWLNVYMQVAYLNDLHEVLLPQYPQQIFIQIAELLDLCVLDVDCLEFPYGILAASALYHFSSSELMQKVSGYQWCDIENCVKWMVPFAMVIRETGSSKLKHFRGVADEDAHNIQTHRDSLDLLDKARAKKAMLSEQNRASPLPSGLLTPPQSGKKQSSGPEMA
Give the value in % but do not write % after it.

Below, each entry is followed by its recorded inhibition at 10 µM result.
# Molecule, inhibition at 10 µM [%]
records = [
    ("CN1C/C=C/CCOc2cccc(c2)-c2ccnc(n2)Nc2cccc(c2)C1 [SB1317]", 98.4),
    ("COCCN1CCN(Cc2ccc(-c3n[nH]c4c3C(=O)c3c(NC(=O)NN5CCOCC5)cccc3-4)cc2)CC1 [RGB286638]", 89.1),
    ("CN(C)C/C=C/C(=O)Nc1ccc(C(=O)N2CCC[C@@H](Nc3ncc(Cl)c(-c4c[nH]c5ccccc45)n3)C2)cc1 [THZ531]", 57.1),
]

Please look at the following molecule next.
-- ask Would you mind telling me what inhibition at 10 µM value was observed for CN1CCN(c2ccc(Nc3ncc4cc5n(c4n3)C3(CCCCC3)CNC5=O)nc2)CC1 [Trilaciclib] ?
-- reply 3.5

====

// inhibition at 10 µM lookup, one value per entry
biological target: CDK11B/Cyclin L2 (Homo sapiens, UniProt P21127); assay: NanoBRET live-cell target engagement, CDK11B-NanoLuc/Cyclin L2 in HEK-293; format: binding; conditions: CDK11b/L2; experiment 2; read-out: Inhibition at 10µM (%)
Sequence (P21127 1-782 isoform P21127-2): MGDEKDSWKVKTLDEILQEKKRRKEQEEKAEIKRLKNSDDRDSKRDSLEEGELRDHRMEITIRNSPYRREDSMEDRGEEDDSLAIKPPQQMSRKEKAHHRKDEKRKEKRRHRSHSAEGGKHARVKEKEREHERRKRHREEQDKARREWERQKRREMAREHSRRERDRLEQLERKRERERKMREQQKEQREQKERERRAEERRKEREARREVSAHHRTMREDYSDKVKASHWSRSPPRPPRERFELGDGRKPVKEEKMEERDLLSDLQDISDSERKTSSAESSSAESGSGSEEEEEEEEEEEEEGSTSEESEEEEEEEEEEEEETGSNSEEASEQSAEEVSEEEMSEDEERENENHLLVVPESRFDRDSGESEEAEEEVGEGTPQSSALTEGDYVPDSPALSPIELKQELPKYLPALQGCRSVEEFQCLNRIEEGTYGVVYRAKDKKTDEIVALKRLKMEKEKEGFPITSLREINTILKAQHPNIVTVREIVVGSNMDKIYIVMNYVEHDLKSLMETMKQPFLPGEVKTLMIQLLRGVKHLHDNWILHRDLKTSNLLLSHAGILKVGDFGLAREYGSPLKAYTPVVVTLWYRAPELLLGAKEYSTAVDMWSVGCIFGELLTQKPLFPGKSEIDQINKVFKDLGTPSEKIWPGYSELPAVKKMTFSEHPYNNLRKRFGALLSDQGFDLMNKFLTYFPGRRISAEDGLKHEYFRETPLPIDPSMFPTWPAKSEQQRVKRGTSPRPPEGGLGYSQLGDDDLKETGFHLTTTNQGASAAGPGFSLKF
Remember to put the unit after the number in your answer.

Below, each entry is followed by its recorded inhibition at 10 µM result.
# Molecule, inhibition at 10 µM
rows = [
    ("N#CCNC(=O)c1ccc(-c2ccnc(Nc3ccc(N4CCOCC4)cc3)n2)cc1 [Momelotinib]", "72.2%"),
    ("CN1CCN(c2ccc(Nc3ncc4cc(C#N)c(=O)n(C5CCCC5)c4n3)cc2)CC1 [ON123300]", "61.9%"),
    ("COc1ccc(F)cc1-c1cc(NC(=O)C2CCCNC2)ncc1Cl (stereo not drawn) [CDK inhibitor 2]", "94.6%"),
    ("NS(=O)(=O)c1ccc(Nc2nc(OCC3CCCCC3)c3nc[nH]c3n2)cc1 [NU6102]", "41.4%"),
    ("CC(C)N1CCN(c2ccc(Nc3ncc4cc5n(c4n3)C3(CCCCC3)CNC5=O)nc2)CC1 [Lerociclib]", "32%"),
]

Please look at the following molecule next.
-- ask Would you mind telling me what inhibition at 10 µM value was observed for CC(C)c1cnn2c(NCc3ccccc3)cc(NC[C@H]3CCNC[C@@H]3O)nc12 [CT7001] ?
-- reply 41.9%
